Test system: 786-0
Experiment: NCI tumour cell line growth inhibition, 48 h
The source made the active and inactive calls. No stated cut-off is given here; in the data, active = GI50 up to about 1.1 µM and inactive = higher.
Task for the reader: assign each of the following molecules its reported GI50.

Name the recorded GI50 for `O=C1CCCC/C(=C/c2ccccc2)N1` . > 100 µM (inactive)

Name the recorded GI50 for `CC(=O)/N=C1\NC(=O)/C(=C/c2ccc(/C=C3/C(=O)N/C(=N\C(C)=O)N3C)cc2)N1C` . > 100 µM (inactive)

Name the recorded GI50 for CN1c2ccccc2N(C(=O)c2ccc(Cl)cc2)C(CC(=O)O)c2cccn21 (stereo not given) . > 100 µM (inactive)

Name the recorded GI50 for `Nn1c(S)nnc1-c1ccccc1Nc1ccccc1-c1nnc(S)n1N` . > 50 µM (inactive)

Name the recorded GI50 for `CC(C)NC(=O)OCc1c(COC(=O)NC(C)C)c(-c2ccc[n+](COC(=O)C(C)C)c2)n2c1CCC2` . 34.6 µM (inactive)

Name the recorded GI50 for `CC(C)Sc1nc(C#N)cc2c1CCCC2` . 54 µM (inactive)

Name the recorded GI50 for `CC(=O)CC(O)(C(F)(F)Cl)C(F)(F)Cl` . > 10 µM (inactive)

Name the recorded GI50 for C=C(C)[C@@H]1CC[C@]2(C(=O)OC)CC[C@]3(C)[C@H](CC[C@@H]4[C@@]5(C)CC[C@H](O)C(C)(C)[C@@H]5CC[C@]43C)[C@@H]12 [METHYL BETULINATE] . 19.7 µM (inactive)

Name the recorded GI50 for `CC(=O)Nc1cc2cc(NS(=O)(=O)c3cc(C(F)(F)F)cc(C(F)(F)F)c3)ccc2oc1=O` . 72.3 µM (inactive)

Name the recorded GI50 for `NS(=O)(=O)c1ccc(NS(=O)(=O)c2ccc(NC(=O)N(c3ccccc3)c3ccccc3)cc2)cc1` . 68.9 µM (inactive)

Name the recorded GI50 for CCOc1ccc(C(CN2CCOCC2)C(C)=O)cc1OC (stereo not given) . 3.53 µM (inactive)

Name the recorded GI50 for COC(=O)c1cc(C(=O)OC)c(CC(=O)C(=O)NC2C3CC4CC(C3)CC2C4)nc1CC(=O)C(=O)NC1C2CC3CC(C2)CC1C3 (stereo not given) . > 100 µM (inactive)

Name the recorded GI50 for `CCOc1ccccc1N1C(=O)C(=O)C(c2nc3ccccc3s2)C(=O)C1=O` . 5.36 µM (inactive)

Name the recorded GI50 for `O=C(O)C1(C(=O)O)CCN(S(=O)(=O)c2ccccc2)CC1` . > 100 µM (inactive)

Name the recorded GI50 for COC(=O)/C(=N/NC(C)(C)C)C(C(=O)C=C(C)C)C(=O)C(=O)Nc1ccc(Cl)cc1C (stereo not given) . > 100 µM (inactive)

Name the recorded GI50 for `CCSc1[nH]c(/N=C(/NC(=O)c2ccccc2)NC(C)C)c(C(N)=O)c1C(N)=O` . > 10 µM (inactive)

Name the recorded GI50 for `Cc1n[nH]c(=O)n1N1C(=O)c2ccccc2C1=O` . > 100 µM (inactive)

Name the recorded GI50 for `O=c1nc(/C=C/c2ccccc2Cl)cc2n1CCN2CCO` . > 100 µM (inactive)

Name the recorded GI50 for `O=[N+]([O-])c1cc2oc(COc3ccccc3)nc2cc1Cl` . 33.1 µM (inactive)

Name the recorded GI50 for `Cc1nc2ccc(Cl)cc2c2c1CCO2` . > 100 µM (inactive)

----------
Tested on: SF-295
Test: NCI tumour cell line growth inhibition, 48 h
Calls of active or inactive are those of the source. Cut-off read from the data, not from the text of the source: active = GI50 up to about 1.1 µM and inactive = higher.
Task for the reader: assign each of the following compounds its reported GI50.

Name the recorded GI50 for CN(C)CCCN1c2ccc(O)cc2Sc2ccc(Cl)cc21 [7-HYDROXYCHLORPROMAZINE] . 15.3 µM (inactive)

Name the recorded GI50 for `O=C(c1ccc([N+](=O)[O-])cc1)N1CCCC1` . > 100 µM (inactive)

Name the recorded GI50 for `C[C@H]1CN[C@@H]2[C@@H](C)[C@H]3[C@@H](C[C@H]4[C@@H]5CC[C@H]6C[C@@H](N)CC[C@]6(C)[C@H]5CC[C@]34C)O[C@@]2(O)C1` . 2.92 µM (inactive)

Name the recorded GI50 for NC1=NN(c2ccccc2)C(=O)C1C(=O)C(=O)Nc1nccs1 (stereo unspecified) . > 100 µM (inactive)

Name the recorded GI50 for `COc1cc(O)cc(/C=C/c2ccc(O)cc2)c1` . 25.7 µM (inactive)

Name the recorded GI50 for CCOC(=O)CNC1=Nc2ccccc2C(=O)N2CSCC12 (stereo unspecified) . > 100 µM (inactive)

Name the recorded GI50 for `O=C1CNc2cc(N3CCCCC3)ccc2N1` . > 100 µM (inactive)

Name the recorded GI50 for `CN1CCCc2nc3ccccc3n2C1` . > 100 µM (inactive)

Name the recorded GI50 for `O=c1ccc(-c2ccc(-n3ccnc3)cc2)nn1CCO` . > 100 µM (inactive)

Name the recorded GI50 for `Nn1c(CCCCCCCCc2nnc(COc3c(O)ccc4ccccc34)n2N)nnc1COc1c(O)ccc2ccccc12` . > 100 µM (inactive)

Name the recorded GI50 for CC(=O)C1=C(C)N2C(=NC3=C(CCc4ccccc43)C2c2ccc(Cl)cc2)S1 (stereo unspecified) . > 100 µM (inactive)

----------
System: T47D
Assay: NCI tumour cell line growth inhibition, 48 h
Calls of active or inactive are those of the source. Rule as the data show it: active = GI50 up to about 1.1 µM and inactive = higher.
Valid outcomes are listed here; reply with one: active, inactive

Per the records of this test, what outcome belongs to `CC(C)(C)OC(=O)c1ccc(NCC2=CC(=O)C=CC2=O)cc1` ? inactive

Per the records of this test, what outcome belongs to `O=C1N/C(=N/N=C/c2c[nH]c3ccccc23)N/C1=C\c1cccs1` ? inactive

Per the records of this test, what outcome belongs to `Cc1c(F)c(N)c2c(=O)cc(-c3ccc(N)c(F)c3)oc2c1F` ? active

Per the records of this test, what outcome belongs to `O=C(NN1CCCCC1)c1cc2cc(CCl)ccc2oc1=O` ? inactive

Per the records of this test, what outcome belongs to CN(C)CCCN1c2ccc(O)cc2Sc2ccc(Cl)cc21 [7-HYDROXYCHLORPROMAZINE] ? inactive

Per the records of this test, what outcome belongs to `COc1cc(O)cc(/C=C/c2ccc(O)cc2)c1` ? inactive

Per the records of this test, what outcome belongs to `CC(=O)OC/C=C(/C=C/CNC1CCCCC1)OC(C)=O` ? inactive

Per the records of this test, what outcome belongs to CCOC(=O)CNC(=O)C(CSC(=O)N(O)c1ccc(Cl)cc1)NC(=O)CCC(N)C(=O)OCC (stereo not given) ? inactive

Per the records of this test, what outcome belongs to `CN(C)c1ccc(C(=NN)c2ccc(N(C)C)cc2)cc1` ? inactive

Per the records of this test, what outcome belongs to `O=C1NC2(CCN(CCCC3(c4ccc(F)cc4)OCCO3)CC2)Oc2ccccc21` ? inactive

----------
Task for the reader: assign each of the following compounds its reported GI50.
Tested on: SK-OV-3
Assay: NCI tumour cell line growth inhibition, 48 h
Activity calls are given as the source filed them. Cut-off read from the data, not from the text of the source: active = GI50 up to about 1.1 µM and inactive = higher.

Can you look up GI50 on SK-OV-3 for `CC(=O)/N=C1\NC(=O)/C(=C/c2ccc(/C=C3/C(=O)N/C(=N\C(C)=O)N3C)cc2)N1C` ? > 100 µM (inactive)

Can you look up GI50 on SK-OV-3 for Cc1ccc2nc(NC(=O)C(=O)C(C(=O)c3ccc4ccccc4c3)C3OC(=O)c4ccccc43)sc2c1 (stereo not given) ? 29.9 µM (inactive)

Can you look up GI50 on SK-OV-3 for `c1ccc(NN(Cc2cnccn2)c2ccccc2)cc1` ? > 100 µM (inactive)

Can you look up GI50 on SK-OV-3 for `O=C1/C(=C/c2ccco2)N=C(c2ccccc2)N1c1ccc(S(=O)(=O)Nc2nccs2)cc1` ? > 100 µM (inactive)

Can you look up GI50 on SK-OV-3 for `Cc1cc(C)n(-c2c(O)ccc(O)c2-n2nc(C)cc2C)n1` ? > 100 µM (inactive)

Can you look up GI50 on SK-OV-3 for `O=C(O)C1(C(=O)O)CCN(S(=O)(=O)c2ccccc2)CC1` ? > 100 µM (inactive)

Can you look up GI50 on SK-OV-3 for `O=C1CSCC(=O)Nc2ccccc2N1` ? > 100 µM (inactive)

Can you look up GI50 on SK-OV-3 for `O=c1ccc(-c2ccc(-n3ccnc3)cc2)nn1CCO` ? > 100 µM (inactive)

Can you look up GI50 on SK-OV-3 for COC(=O)C1=C(O)C(C(=O)OC)[C@@]2(O)[C@@H](C(=O)OC)C(c3ccc(OC(=O)/C=C/c4ccccc4)cc3)C[C@@H]1[C@@H]2C(=O)OC (stereo not given in full) ? 75.5 µM (inactive)

Can you look up GI50 on SK-OV-3 for `N#Cc1ccc(-c2nc(C#N)c(N)o2)cc1` ? > 10 µM (inactive)
